# system under test: KRAS G12D (Homo sapiens (Human), UniProt P01116, G12D)
# Sequence (P01116-2 other isoform, or with tags, fused parts or gaps G12D): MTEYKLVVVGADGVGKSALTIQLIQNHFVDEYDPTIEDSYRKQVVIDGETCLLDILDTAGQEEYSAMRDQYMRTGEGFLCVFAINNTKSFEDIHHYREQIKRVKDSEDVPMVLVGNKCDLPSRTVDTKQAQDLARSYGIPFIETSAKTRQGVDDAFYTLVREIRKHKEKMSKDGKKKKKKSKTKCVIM
# test summary: KRAS G12D RAF Disruption Assay (HTRF)
# Assay type: biochemical
# condition set: recombinant GMPPNP-loaded KRAS G12D (5 nM), GST-RAF1 RBD (9 nM), HTRF signal
One threshold, 10 µM, splits the recorded KRASG12D RAF Disruption Assay (IC50, µM) values: lower ones are Met, equal or higher ones are Not met.

**Query** Lab log: compare recorded KRASG12D RAF Disruption Assay (IC50, µM) with 10 µM; is it strictly lower for Oc1cc(-c2c(Cl)cc3c(N4CC[C@H]5CC[C@@H](C4)N5)nc(OC[C@@]45CCCN4C[C@H](F)C5)nc3c2F)c2ccccc2c1 (single isomer, unassigned) [Example 8-7] ?
**Result** Met

Further cases:
**Query** Lab log: compare recorded KRASG12D RAF Disruption Assay (IC50, µM) with 10 µM; is it strictly lower for Cc1cc(N)nc(-c2c(Cl)cc3c(N4CC5CCC(C4)NC5)nc(OC[C@@H]4CCCN4C)nc3c2F)c1C(F)(F)F (stereo partly drawn) [Example 2-2] ?
**Result** Not met

**Query** Lab log: compare recorded KRASG12D RAF Disruption Assay (IC50, µM) with 10 µM; is it strictly lower for Cc1cc(N)nc(-c2c(Cl)cc3c(N4CC[C@H]5CC[C@@H](C4)N5)nc(OC[C@]45CCC[C@H]4N(C)CCC5)nc3c2F)c1C(F)(F)F [Example 3] ?
**Result** Met

**Query** Lab log: compare recorded KRASG12D RAF Disruption Assay (IC50, µM) with 10 µM; is it strictly lower for Cc1cc(N)nc(-c2c(Cl)cc3c(N4CC[C@H]5CC[C@@H](C4)N5)nc(OCC4(CN5CCOCC5)CC4)nc3c2F)c1C(F)(F)F [Example 10-7] ?
**Result** Not met

**Query** Lab log: compare recorded KRASG12D RAF Disruption Assay (IC50, µM) with 10 µM; is it strictly lower for CN1CCC[C@H]1COc1nc(N2C3CCNCC2CC3)c2cc(Cl)c(-c3cc(O)cc4ccccc34)c(F)c2n1 (stereo partly drawn) [Example 1-1] ?
**Result** Not met

---

# system under test: KRAS G12D (Homo sapiens (Human), UniProt P01116, G12D)
# test summary: KRAS G12D RAF Disruption Assay (HTRF)
# Assay type: biochemical
# condition set: recombinant GMPPNP-loaded KRAS G12D (5 nM), GST-RAF1 RBD (9 nM), HTRF signal
So I've got a bunch of molecules here, and I need their KRASG12D RAF Disruption Assay (IC50, µM) values.

For this molecule ( C#Cc1c(F)ccc2cc(O)cc(-c3ccc4c(N5CC[C@H]6CC[C@@H](C5)N6)nc(OCC5(CN(C)C)CC5)nc4c3F)c12 ), measured KRASG12D RAF Disruption Assay (IC50, µM) is 2.7 µM

For this molecule ( Cc1cc(N)nc(-c2ccc3c(N4CC[C@H]5CC[C@@H](C4)N5)nc(OC[C@@]45CCCN4C[C@H](F)C5)nc3c2F)c1C(F)(F)F ), measured KRASG12D RAF Disruption Assay (IC50, µM) is 6.3 µM

For this molecule ( CN1CCC[C@@]2(COc3nc(N4CC[C@H]5CC[C@@H](C4)N5)c4ccc(-c5cc(O)cc6ccccc56)c(F)c4n3)CCC[C@@H]12 ), measured KRASG12D RAF Disruption Assay (IC50, µM) is 5.1 µM

For this molecule ( Cc1cc(N)nc(-c2c(Cl)cc3c(N4CC[C@H]5CC[C@@H](C4)N5)nc(OCC4(CN5C6CCC5COC6)CC4)nc3c2F)c1C(F)(F)F ), measured KRASG12D RAF Disruption Assay (IC50, µM) is 1.0 µM

# map each molecule to its KRASG12D RAF Disruption Assay (IC50, µM)
1. Cc1cc(N)nc(-c2ccc3c(N4CC[C@H]5CC[C@@H](C4)N5)nc(OCC45CCCN4CC(F)(F)C5)nc3c2F)c1C(F)(F)F (stereo partly drawn)
2. Cc1cc(N)nc(-c2c(Cl)cc3c(N4CC[C@H]5CC[C@@H](C4)N5)nc(OCC4(CN5CC[C@@H](F)C5)CC4)nc3c2F)c1C(F)(F)F

**Result**
[">100 µM", "41.5 µM"]
